TARGET_SYSTEM: DNA topoisomerase 1 (Homo sapiens)
Sequence (whole entry): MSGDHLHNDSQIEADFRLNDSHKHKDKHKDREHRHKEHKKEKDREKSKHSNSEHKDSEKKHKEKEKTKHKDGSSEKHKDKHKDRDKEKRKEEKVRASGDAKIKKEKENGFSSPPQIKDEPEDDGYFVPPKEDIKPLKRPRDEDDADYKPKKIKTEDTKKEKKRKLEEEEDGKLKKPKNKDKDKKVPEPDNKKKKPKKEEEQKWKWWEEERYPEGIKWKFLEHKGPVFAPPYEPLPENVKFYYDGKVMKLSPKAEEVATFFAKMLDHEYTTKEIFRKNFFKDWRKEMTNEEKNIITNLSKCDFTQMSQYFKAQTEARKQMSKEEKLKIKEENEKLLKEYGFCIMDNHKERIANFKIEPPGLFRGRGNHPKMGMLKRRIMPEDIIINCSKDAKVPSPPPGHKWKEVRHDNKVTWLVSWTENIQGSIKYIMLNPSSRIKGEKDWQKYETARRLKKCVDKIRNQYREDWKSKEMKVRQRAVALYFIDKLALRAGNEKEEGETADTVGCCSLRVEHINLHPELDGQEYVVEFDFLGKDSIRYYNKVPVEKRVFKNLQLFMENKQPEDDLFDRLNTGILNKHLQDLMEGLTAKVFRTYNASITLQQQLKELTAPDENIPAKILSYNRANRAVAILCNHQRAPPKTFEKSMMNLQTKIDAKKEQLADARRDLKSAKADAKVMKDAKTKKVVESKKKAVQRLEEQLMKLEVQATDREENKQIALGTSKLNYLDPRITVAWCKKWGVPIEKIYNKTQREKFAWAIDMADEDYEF
ASSAY_NAME: Inhibition of Topoisomerase I (unknown origin) using pBR322 DNA as substrate at 200 uM incubated for 15 mins by EtBr staining based agarose gel electrophoresis method relative to control
Calls of active or inactive are those of the source. The calls are words filed in the database; no cut-off is given here.
MEASUREMENT_NAME: inhibition

COMPOUND	TARGET_SYSTEM	inhibition
COc1ccc2c(c1)c1ncc3ccccc3c1n2CCCN1CCN(C(C)C)CC1	DNA topoisomerase 1 (Homo sapiens)	inactive
O=C(CCCn1c2cc3c(cc2c2[nH]c(=O)c4ccccc4c21)OCO3)NO	DNA topoisomerase 1 (Homo sapiens)	> 95%
O=C(CCCn1c2cc3c(cc2c2nc(Cl)c4ccccc4c21)OCO3)NO	DNA topoisomerase 1 (Homo sapiens)	> 95%
CN(C)CCCn1c2cc3c(cc2c2ncc4ccccc4c21)OCO3	DNA topoisomerase 1 (Homo sapiens)	> 95%

--- query ---
Quick note, inhibition for `COc1ccc2c(c1)c1ncc3ccccc3c1n2CCCN1CCN(C)CC1` landed at inactive

###

TARGET_SYSTEM: DNA topoisomerase 2-alpha (Homo sapiens)
ASSAY_NAME: Inhibition of Topoisomerase 2 (unknown origin) using pBR322 DNA as substrate at 50 uM incubated for 15 mins by EtBr staining based agarose gel electrophoresis method
Activity calls are given as the source filed them. No cut-off for these calls is given here.
Mark one answer only. Choices: yes for active, no for inactive

Please let me know the test result on file for `O=C(CCCn1c2cc3c(cc2c2[nH]c(=O)c4ccccc4c21)OCO3)NO` .
yes

Please let me know the test result on file for `COc1ccc2c(c1)c1ncc3ccccc3c1n2CCCN1CCN(C)CC1` .
no

Please let me know the test result on file for `CN(C)CCCn1c2cc3c(cc2c2ncc4ccccc4c21)OCO3` .
yes

Please let me know the test result on file for `COc1ccc2c(c1)c1nc(Cl)c3ccccc3c1n2CCCC(=O)NO` .
yes

Please let me know the test result on file for `O=C(CCCn1c2cc3c(cc2c2ncc4ccccc4c21)OCO3)NO` .
yes

Please let me know the test result on file for `COc1ccc2c(c1)c1ncc3ccccc3c1n2CCCN1CCN(C(C)C)CC1` .
no

Please let me know the test result on file for `O=C(CCCn1c2cc3c(cc2c2nc(Cl)c4ccccc4c21)OCO3)NO` .
yes

Please let me know the test result on file for `CN(C)CCCn1c2cc3c(cc2c2nc(Cl)c4ccccc4c21)OCO3` .
yes

Please let me know the test result on file for `CN(C)CCCn1c2cc3c(cc2c2[nH]c(=O)c4ccccc4c21)OCO3` .
yes

Please let me know the test result on file for `COc1ccc2c(c1)c1ncc3ccccc3c1n2CCCC(=O)NO` .
yes

###

TARGET_SYSTEM: DNA topoisomerase 1 (Homo sapiens)
ASSAY_NAME: Inhibition of Topoisomerase I (unknown origin) using pBR322 DNA as substrate at 10 uM incubated for 15 mins by EtBr staining based agarose gel electrophoresis method
Activity calls are given as the source filed them. The calls are words filed in the database; no cut-off is given here.
MEASUREMENT_NAME: inhibition

Past entries and their recorded results:
COMPOUND	MEASUREMENT_NAME	READOUT_VALUE
CN(C)CCCn1c2cc3c(cc2c2ncc4ccccc4c21)OCO3	inhibition	Active
O=C(CCCn1c2cc3c(cc2c2ncc4ccccc4c21)OCO3)NO	inhibition	Active
CN(C)CCCn1c2cc3c(cc2c2nc(Cl)c4ccccc4c21)OCO3	inhibition	Active
CN(C)CCCn1c2cc3c(cc2c2[nH]c(=O)c4ccccc4c21)OCO3	inhibition	Active
COc1ccc2c(c1)c1nc(Cl)c3ccccc3c1n2CCCC(=O)NO	inhibition	Active

Quick note, inhibition for `O=C(CCCn1c2cc3c(cc2c2nc(Cl)c4ccccc4c21)OCO3)NO` landed at Active

Quick note, inhibition for `COc1ccc2c(c1)c1ncc3ccccc3c1n2CCCC(=O)NO` landed at Active

###

ASSAY_NAME: Cmax in ICR mouse at 10 mg/kg,po measured upto 24 hrs by LC-MS/MS analysis
Assay type: ADME, organism-based
TEST_CONTEXT: in vivo
MEASUREMENT_NAME: Cmax (ng/mL)
Express the result in ng/mL but write the number alone.

Quick note, Cmax for `CN(C)CCCn1c2cc3c(cc2c2ncc4ccccc4c21)OCO3` landed at 284

Quick note, Cmax for `COc1ccc2c(c1)c1ncc3ccccc3c1n2CCCC(=O)NO` landed at 109

###

Test system: HCT-116
ASSAY_NAME: Antiproliferative activity against human HCT-116 cells assessed as inhibition of cell growth incubated for 96 hrs by MTT based ELISA
Assay type: functional
TEST_CONTEXT: HCT-116, 96 h
Provide the reported pIC50 of each item.
// field semantics: pIC50 = negative decimal log of concentration (mol/L)

Quick note, pIC50 for `CC(C)Oc1ccc2c(c1)c1[nH]c(=O)c3ccccc3c1n2CCCN(C)C` landed at 5.65

Quick note, pIC50 for `COc1ccc2c(c1)c1ncc3ccccc3c1n2CCCN1CCN(C)CC1` landed at 5.93

Quick note, pIC50 for `COc1ccc2c(c1)c1ncc3ccccc3c1n2CCCC(=O)NO` landed at 6.28

Quick note, pIC50 for `CN(C)CCCn1c2cc3c(cc2c2ncc4ccccc4c21)OCO3` landed at 6.68

Quick note, pIC50 for `COc1ccc2c(c1)c1nc(Cl)c3ccccc3c1n2CCCN1CCC(N(C)C)CC1` landed at 5.59

Quick note, pIC50 for `O=C(CCCn1c2ccccc2c2nc(Cl)c3ccccc3c21)NO` landed at 5.54

Quick note, pIC50 for `COc1ccc2c3nc(Cl)c4ccccc4c3n(CCCN(C)C)c2c1` landed at 6.02

Quick note, pIC50 for `O=C(CCCn1c2ccc(OC(F)F)cc2c2nc(Cl)c3ccccc3c21)NO` landed at 5.60

Quick note, pIC50 for `O=C(CCCn1c2cc3c(cc2c2[nH]c(=O)c4ccccc4c21)OCO3)NO` landed at 5.39

Quick note, pIC50 for `COc1ccc2c3nc(Cl)c4ccccc4c3n(CCCC(=O)NO)c2c1` landed at 5.57

Quick note, pIC50 for `CN(C)CCCn1c2ccccc2c2nc(Cl)c3ccccc3c21` landed at 5.88

Quick note, pIC50 for `COc1ccc2c(c1)c1nc(Cl)c3ccccc3c1n2CCCC(=O)NO` landed at 6.13

Quick note, pIC50 for `COc1ccc2c(c1)c1nc(Cl)c3ccccc3c1n2CCCN1CCN(C)CC1` landed at 5.78

Quick note, pIC50 for `O=C(CCCn1c2cc3c(cc2c2ncc4ccccc4c21)OCO3)NO` landed at 5.88

Quick note, pIC50 for `COc1ccc2c(c1)c1[nH]c(=O)c3ccccc3c1n2CCCN(C)C` landed at 6.26

Quick note, pIC50 for `COc1ccc2c(c1)c1ncc3ccccc3c1n2CCCN1CCN(C(C)C)CC1` landed at 5.86

Quick note, pIC50 for `CCc1c2c(nc3ccc(OC(=O)N4CCC(N5CCCCC5)CC4)cc13)-c1cc3c(c(=O)n1C2)COC(=O)[C@]3(O)CC` landed at 5.50

Quick note, pIC50 for COc1cc([C@@H]2c3cc4c(cc3[C@@H](O[C@@H]3O[C@@H]5CO[C@@H](C)O[C@H]5[C@H](O)[C@H]3O)[C@H]3COC(=O)[C@H]23)OCO4)cc(OC)c1O [ETOPOSIDE] landed at 5.70

###

TARGET_SYSTEM: UniProtKB P11387
ASSAY_NAME: Inhibition of Topoisomerase I (unknown origin) using pBR322 DNA as substrate at 50 uM incubated for 15 mins by EtBr staining based agarose gel electrophoresis method
Activity calls are given as the source filed them. The calls are words filed in the database; no cut-off is given here.
Mark one answer only. Choices: active, inactive

Please let me know the test result on file for `COc1ccc2c(c1)c1nc(Cl)c3ccccc3c1n2CCCC(=O)NO` .
active

Please let me know the test result on file for `O=C(CCCn1c2cc3c(cc2c2[nH]c(=O)c4ccccc4c21)OCO3)NO` .
active

Please let me know the test result on file for `CN(C)CCCn1c2cc3c(cc2c2ncc4ccccc4c21)OCO3` .
active

Please let me know the test result on file for `O=C(CCCn1c2cc3c(cc2c2nc(Cl)c4ccccc4c21)OCO3)NO` .
active

Please let me know the test result on file for `COc1ccc2c(c1)c1ncc3ccccc3c1n2CCCC(=O)NO` .
active

Please let me know the test result on file for `CN(C)CCCn1c2cc3c(cc2c2[nH]c(=O)c4ccccc4c21)OCO3` .
active

Please let me know the test result on file for `COc1ccc2c(c1)c1ncc3ccccc3c1n2CCCN1CCN(C)CC1` .
inactive

Please let me know the test result on file for `CN(C)CCCn1c2cc3c(cc2c2nc(Cl)c4ccccc4c21)OCO3` .
active

Please let me know the test result on file for `COc1ccc2c(c1)c1ncc3ccccc3c1n2CCCN1CCN(C(C)C)CC1` .
inactive

Please let me know the test result on file for `O=C(CCCn1c2cc3c(cc2c2ncc4ccccc4c21)OCO3)NO` .
active
